Reference for the values: patent US10562891B2

Molecular target: catalytic domain of human PARP14 (Homo sapiens (Human))
Sequence (Q460N5 1611-1801): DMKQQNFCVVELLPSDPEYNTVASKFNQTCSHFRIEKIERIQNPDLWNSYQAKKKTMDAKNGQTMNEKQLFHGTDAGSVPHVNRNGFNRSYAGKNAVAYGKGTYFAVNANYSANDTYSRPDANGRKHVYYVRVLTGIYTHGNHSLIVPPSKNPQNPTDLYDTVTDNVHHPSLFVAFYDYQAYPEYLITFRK
Assay: Enzymatic assay for inhibition of PARP14 (DELFIA, auto-modification with biotin-NAD)
Conditions: auto-modification of PARP14 by biotin-NAD, 50 nM PARP14, 3 μM biotin-NAD
Protocol: An N-terminal His-TEV fusion tag was used to purify the protein from cell lysates. The His-TEV tag was left on the protein for use in the enzymatic assay. Enzymatic inhibition of PARP14 was measured using a dissociation-enhanced lanthanide fluorescence immunoassay (DELFIA) monitoring the auto-modification of PARP14 by biotinylated nicotinamide adenine dinucleotide (biotin-NAD). […]
pIC50: −log10 of the molar value. Structures can show the parent of a compound that is named as a salt.
Recorded pIC50 for the following compounds

O=c1[nH]c(CSC2CCS(=O)(=O)CC2)nc2cc(OCC3CCC3)cc(F)c12 [Example 304] : > 6.00
O=c1[nH]c(CSC2CCOCC2)nc2cc(Nc3cnccn3)ccc12 [Example 85] : 5.00 to 6.00
CO[C@H]1CC[C@H](Nc2cc3nc(CS[C@H]4CC[C@H](O)CC4)[nH]c(=O)c3c(F)c2F)CC1 [Example 377] : > 6.00
O=c1[nH]c(CS[C@H]2C[C@@H](O)C2)nc2cc(OCC3CCOCC3)cc(F)c12 [Example 405] : > 6.00
O=c1[nH]c(CSC2CCS(=O)(=O)CC2)nc2cc(NC3CCCC3)c(F)c(F)c12 [Example 316] : > 6.00
O=c1[nH]c(CSC2CCOCC2)nc2cc(OCC3CC3)cc(F)c12 [Example 291] : > 6.00

Ask: Given the entry O=c1[nH]c(CSC2CCN(CC(F)F)CC2)nc2cc(NC3CCCC3)ccc12 [Example 258] , report its measured pIC50.
Reply: > 6.00

Ask: Given the entry O=c1[nH]c(CSC2CCNCC2)nc2cc(NCC3CCC3)c(F)cc12 [Example 289, hydrochloride] , report its measured pIC50.
Reply: 5.00 to 6.00
